Attribution: ChEMBL document CHEMBL1165918

This listing pairs compounds with measured inhibition of growth at 10 µM.
tested on: PC-3; test: Growth inhibition of human PC3 cells at 10 uM after 72 hrs by MTT assay; format: functional; conditions: PC-3, 72 h, read-out: GI

smiles record | tested target | inhibition of growth at 10 µM (%)
COc1ccc2c(c1)c1c(n2C(=O)c2ccccc2)CCNC1 | PC-3 | 0
CS(=O)(=O)c1ccc2c(c1)c1c(n2C(=O)c2ccccc2)CCNC1 | PC-3 | 7
COC1(c2cc(F)cc(OCCCN3CCc4c(c5ccccc5n4C(=O)c4ccccc4)C3)c2)CCOCC1 | PC-3 | 6
COc1ccc2c(c1)c1c(n2C(=O)c2ccccc2)CCN(CCCOc2cc(F)cc(C3(OC)CCOCC3)c2)C1 | PC-3 | 20
COc1ccc2c(c1)c1c(n2C(=O)c2c(Cl)cc(Cl)cc2Cl)CCN(CCCOc2cc(F)cc(C3(OC)CCOCC3)c2)C1 | PC-3 | 0
COc1ccc2c(c1)c1c(n2C(=O)c2ccccc2F)CCN(CCCOc2cc(F)cc(C3(OC)CCOCC3)c2)C1 | PC-3 | 15
COc1ccc2c(c1)c1c(n2C(=O)c2ccc(Br)cc2)CCN(CCCOc2cc(F)cc(C3(OC)CCOCC3)c2)C1 | PC-3 | 0
COc1ccc2c(c1)c1c(n2C(=O)c2cccc(F)c2)CCN(CCCOc2cc(F)cc(C3(OC)CCOCC3)c2)C1 | PC-3 | 44
COc1ccc2c(c1)c1c(n2C(=O)c2ccc(Cl)cc2)CCN(CCCOc2cc(F)cc(C3(OC)CCOCC3)c2)C1 | PC-3 | 9
COc1ccc2c(c1)c1c(n2C(=O)c2ccc(F)cc2)CCN(CCCOc2cc(F)cc(C3(OC)CCOCC3)c2)C1 | PC-3 | 0
COc1ccc2c(c1)c1c(n2C(=O)c2ccc(S(=O)(=O)/N=C/N(C)C)cc2)CCN(CCCOc2cc(F)cc(C3(OC)CCOCC3)c2)C1 | PC-3 | 42
COC1(c2cc(F)cc(OCCCN3CCc4c(c5cc(S(C)(=O)=O)ccc5n4C(=O)c4ccccc4)C3)c2)CCOCC1 | PC-3 | 37

====

This listing pairs compounds with measured pIC50.
molecular target: Prostaglandin G/H synthase 1 (Homo sapiens); test: Inhibition of COX1 in human whole blood; assay type: tissue-based
Sequence (P23219 whole entry): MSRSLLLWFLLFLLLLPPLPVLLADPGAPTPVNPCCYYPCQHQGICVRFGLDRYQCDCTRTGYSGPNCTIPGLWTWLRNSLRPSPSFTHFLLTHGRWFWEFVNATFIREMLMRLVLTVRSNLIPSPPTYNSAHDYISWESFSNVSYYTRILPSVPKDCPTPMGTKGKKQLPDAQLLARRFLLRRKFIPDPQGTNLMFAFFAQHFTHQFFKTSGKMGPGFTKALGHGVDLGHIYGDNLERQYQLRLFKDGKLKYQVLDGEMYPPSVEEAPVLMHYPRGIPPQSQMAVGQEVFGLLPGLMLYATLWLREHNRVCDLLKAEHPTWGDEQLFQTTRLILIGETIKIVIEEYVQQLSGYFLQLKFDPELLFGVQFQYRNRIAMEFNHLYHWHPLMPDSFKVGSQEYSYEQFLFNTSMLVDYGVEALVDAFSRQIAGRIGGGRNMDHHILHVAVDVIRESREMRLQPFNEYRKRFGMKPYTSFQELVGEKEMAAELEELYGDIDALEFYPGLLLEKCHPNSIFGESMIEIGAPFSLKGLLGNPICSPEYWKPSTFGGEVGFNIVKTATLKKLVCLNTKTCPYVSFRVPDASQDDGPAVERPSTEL
pIC50: −log10 of the molar value.

smiles record | tested target | pIC50
COC(=O)c1cc2cc(S(C)(=O)=O)ccc2n1Cc1ccc(Cl)cc1 | Prostaglandin G/H synthase 1 (Homo sapiens) | < 5.00
COC1(c2cc(F)cc(OCc3cc(-c4ccccc4)n(-c4ccc(S(C)(=O)=O)cc4)n3)c2)CCOCC1 | Prostaglandin G/H synthase 1 (Homo sapiens) | < 5.00

====

Target: Polyunsaturated fatty acid 5-lipoxygenase (Homo sapiens, UniProt P09917)
Sequence (P09917 whole entry): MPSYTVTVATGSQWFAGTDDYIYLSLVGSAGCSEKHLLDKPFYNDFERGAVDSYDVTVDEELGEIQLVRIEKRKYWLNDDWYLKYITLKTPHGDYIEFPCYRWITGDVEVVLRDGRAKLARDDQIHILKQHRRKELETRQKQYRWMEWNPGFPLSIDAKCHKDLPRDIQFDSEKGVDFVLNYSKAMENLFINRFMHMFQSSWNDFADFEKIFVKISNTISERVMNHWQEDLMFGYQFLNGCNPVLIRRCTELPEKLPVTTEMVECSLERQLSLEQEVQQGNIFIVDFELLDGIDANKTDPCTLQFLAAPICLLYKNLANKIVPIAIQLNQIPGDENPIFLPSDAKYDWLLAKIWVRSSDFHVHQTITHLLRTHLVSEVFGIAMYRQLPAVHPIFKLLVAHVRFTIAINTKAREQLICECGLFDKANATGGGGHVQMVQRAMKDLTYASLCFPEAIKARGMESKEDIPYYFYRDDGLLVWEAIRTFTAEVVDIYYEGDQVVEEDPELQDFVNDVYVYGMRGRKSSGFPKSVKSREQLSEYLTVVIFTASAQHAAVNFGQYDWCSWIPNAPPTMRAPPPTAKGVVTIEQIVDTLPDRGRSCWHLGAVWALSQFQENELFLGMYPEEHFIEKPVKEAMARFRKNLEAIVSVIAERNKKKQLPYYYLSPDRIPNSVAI
pIC50: −log10 of the molar value.
metric: pIC50

smiles record | tested target | relation operator | observed result
COc1ccc2c(c1)c1c(n2C(=O)c2ccc(Cl)cc2)CCN(CCCOc2cc(F)cc(C3(OC)CCOCC3)c2)C1 | Polyunsaturated fatty acid 5-lipoxygenase (Homo sapiens, UniProt P09917) | = | 3.93
COc1ccc2c(c1)c1c(n2C(=O)c2ccccc2F)CCN(CCCOc2cc(F)cc(C3(OC)CCOCC3)c2)C1 | Polyunsaturated fatty acid 5-lipoxygenase (Homo sapiens, UniProt P09917) | < | 5.00
COc1ccc2c(c1)c1c(n2C(=O)c2ccc(S(=O)(=O)/N=C/N(C)C)cc2)CCN(CCCOc2cc(F)cc(C3(OC)CCOCC3)c2)C1 | Polyunsaturated fatty acid 5-lipoxygenase (Homo sapiens, UniProt P09917) | < | 5.00
COc1ccc2c(c1)c1c(n2C(=O)c2ccccc2)CCN(CCCOc2cc(F)cc(C3(OC)CCOCC3)c2)C1 | Polyunsaturated fatty acid 5-lipoxygenase (Homo sapiens, UniProt P09917) | = | 3.97
